Values compiled from patent US11427548B2.

# subject_of_test: Androgen Receptor (Homo sapiens)
# Construct: endogenous in cells; host or cells: VCaP cells
# Sequence (P10275 whole entry): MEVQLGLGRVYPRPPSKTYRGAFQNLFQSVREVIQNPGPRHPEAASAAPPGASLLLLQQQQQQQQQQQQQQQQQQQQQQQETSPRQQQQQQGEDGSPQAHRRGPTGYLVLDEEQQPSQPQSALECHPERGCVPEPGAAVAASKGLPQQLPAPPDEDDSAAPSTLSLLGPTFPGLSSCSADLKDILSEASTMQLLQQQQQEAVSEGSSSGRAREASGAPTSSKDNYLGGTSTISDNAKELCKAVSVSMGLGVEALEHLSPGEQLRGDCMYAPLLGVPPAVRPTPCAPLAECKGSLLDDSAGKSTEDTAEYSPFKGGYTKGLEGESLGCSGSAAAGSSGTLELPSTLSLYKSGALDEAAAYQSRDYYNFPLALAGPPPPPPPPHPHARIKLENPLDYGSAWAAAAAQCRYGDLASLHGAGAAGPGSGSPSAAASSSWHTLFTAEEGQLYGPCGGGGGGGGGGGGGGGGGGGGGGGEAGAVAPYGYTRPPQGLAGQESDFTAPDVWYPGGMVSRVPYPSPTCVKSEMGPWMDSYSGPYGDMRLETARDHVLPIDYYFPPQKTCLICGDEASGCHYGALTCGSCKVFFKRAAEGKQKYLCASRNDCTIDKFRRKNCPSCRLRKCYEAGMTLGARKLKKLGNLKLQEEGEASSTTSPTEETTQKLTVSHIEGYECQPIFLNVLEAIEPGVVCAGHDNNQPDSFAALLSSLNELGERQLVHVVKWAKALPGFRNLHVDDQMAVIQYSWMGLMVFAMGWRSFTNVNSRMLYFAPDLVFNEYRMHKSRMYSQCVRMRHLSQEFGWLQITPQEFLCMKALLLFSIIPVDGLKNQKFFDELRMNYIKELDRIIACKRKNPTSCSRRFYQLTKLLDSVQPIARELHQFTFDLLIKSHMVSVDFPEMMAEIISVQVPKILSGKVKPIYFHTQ
# procedure_text: Androgen Receptor ELISA assay (PathScan AR ELISA) in VCaP cells: AR degradation, Dmax and DC50
# Format: cell-based
# recorded_conditions: VCaP, VCaP cells; Table 36; read-out: VCaP Dmax (%)
measured_parameter: Dmax

INSERT INTO assay_data (compound, subject_of_test, measured_parameter, value) VALUES
  ('Cc1ncsc1-c1ccc(CNC(=O)[C@@H]2C[C@@H](O)CN2C(=O)[C@@H](NC(=O)COCCN2CCN(c3ccc(C(=O)N[C@H]4C(C)(C)[C@H](Oc5ccc(C#N)c(Cl)c5)C4(C)C)cn3)CC2)C(C)(C)C)cc1 [Example 638]', 'Androgen Receptor (Homo sapiens)', 'Dmax', '> 71%'),
  ('CC(C)[C@H](OCCN1CCN(c2ccc(C(=O)N[C@H]3C(C)(C)[C@H](Oc4ccc(C#N)c(Cl)c4)C3(C)C)cn2)CC1)C(=O)N[C@@H](C)C(=O)N1C[C@H](O)C[C@H]1C(=O)NCc1ccc(Cl)cc1 [Example 731]', 'Androgen Receptor (Homo sapiens)', 'Dmax', '< 25%'),
  ('Cc1ncsc1-c1ccc([C@H](C)NC(=O)[C@@H]2C[C@@H](O)CN2C(=O)[C@@H](c2cc(N3CCN(CCCc4ccc(C(=O)N[C@H]5C(C)(C)[C@H](Oc6ccc(C#N)c(Cl)c6)C5(C)C)cc4)CC3)no2)C(C)C)cc1 [Example 797]', 'Androgen Receptor (Homo sapiens)', 'Dmax', '51 to 70%'),
  ('Cc1ncsc1-c1ccc([C@H](C)NC(=O)[C@@H]2CC(F)(F)CN2C(=O)[C@@H](NC(=O)COCCN2CCN(c3ccc(C(=O)N[C@H]4C(C)(C)[C@H](Oc5ccc(C#N)c(Cl)c5)C4(C)C)cn3)CC2)C(C)(C)C)cc1 [Example 725]', 'Androgen Receptor (Homo sapiens)', 'Dmax', '< 25%');

Query: // fetch Androgen Receptor (Homo sapiens) Dmax for Cc1ncsc1-c1ccc(CNC(=O)[C@@H]2C[C@@H](O)CN2C(=O)[C@@H](NC(=O)COCCN2C[C@H]3C[C@@H]2CN3c2ccc(C(=O)N[C@H]3C(C)(C)[C@H](Oc4ccc(C#N)c(Cl)c4)C3(C)C)cn2)C(C)(C)C)cc1 [Example 669]
Reply: 51 to 70%
